B1: WEE1 (parent)
chain: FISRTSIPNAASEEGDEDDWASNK

variants of: B1; assay: protein stability index of a GFP-peptide fusion (GPS, HEK-293T) (PSI 1-6); higher = more stable; settings: c terminus: a fixed tail appended;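 note: lentivirally expressed fusions sorted by FACS into six bins by GFP to DsRed ratio, PSI derived from sequencing read proportions per bin multiplied by bin number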
Provide the reported protein stability index of each item.
The reply should be a number, written without any unit.

# input Find the recorded protein stability index belonging to A11M and report it.
# output 3.95

# input Find the recorded protein stability index belonging to P8Q and report it.
# output 3.96

# input Find the recorded protein stability index belonging to S22V and report it.
# output 3.96

# input Find the recorded protein stability index belonging to S22R and report it.
# output 3.99

# input Find the recorded protein stability index belonging to A11V and report it.
# output 3.92

# input Find the recorded protein stability index belonging to K24H and report it.
# output 3.91

# input Find the recorded protein stability index belonging to I7L and report it.
# output 4.11
